Test system: 786-0 renal
Assay: NCI-60 one-dose screen, 48 h (100 = growth as untreated, 0 = no growth, -100 = all killed)
Details: 10 µM unless noted
The panel holds about 83,000 compounds, 20% with a hit somewhere; the sample as a whole holds those more often.
Would you please tag the item true (1) when its growth is 60% or above, and false (0) when it is below?

Q: Determine whether this compound has growth no lower than 60%: Cc1ccc(NC(=O)c2nc(S(C)=O)oc2-c2ccc(F)cc2)cc1Nc1nccc(-c2cccnc2)n1 (stereo not given)
A: false (0)

Q: Determine whether this compound has growth no lower than 60%: CN1CCN(Cc2ccc(NC(=O)c3ccc(C#N)c(C#Cc4cnc(N)c5ncccc45)c3)cc2C(F)(F)F)CC1
A: false (0)

Q: Determine whether this compound has growth no lower than 60%: SCc1ccc(CS)cc1
A: true (1)

Q: Determine whether this compound has growth no lower than 60%: CCCCn1c(C)nc2ccc(Nc3nc(Cl)nc4nc[nH]c34)cc21
A: false (0)

Q: Determine whether this compound has growth no lower than 60%: CCCCCCCCCCCCCCCc1cc(O)ccc1[N+](=O)[O-]
A: true (1)
